system: NCI-H1944; experiment: normalised cell viability (NPI; 0 = phenylarsine oxide control, 1 = DMSO control) (fraction of DMSO control); higher = more viable cells (less compound toxicity); settings: glucocorticoid arm: vehicle; compound 1 µM; 6 days
Over roughly 1,900 compounds, “normalised cell viability (NPI; 0 = phenylarsine oxide control, 1 = DMSO control)” has its median near 1; the lowest 2% begin near 0.039. The full list was thinned out, with the lowest values kept by preference.
Measured normalised cell viability, listed per entry for reference.
Keep the answer to the number alone.

compound O=C(CCCCCCC(=O)Nc1ccccc1)NO [Vorinostat (SAHA, MK0683)] , normalised cell viability observed: 1

compound CN1CCCN(C(=O)c2cccc(-c3ccc(/C=C4/C(=O)Nc5ccc(Cl)cc54)o3)c2)CC1 , normalised cell viability observed: 0.282

compound C[N+](C)(C)CCO.[Br-] [Choline bromide] , normalised cell viability observed: 0.995

compound Cc1[nH]c(/C=C2\C(=O)Nc3ccc(S(=O)(=O)N(C)c4cccc(Cl)c4)cc32)c(C)c1C(=O)N1CCN(C)CC1 , normalised cell viability observed: 0.969

compound O=C(CCCCCCC(=O)Nc1ccccc1)NO , normalised cell viability observed: 0.969

====

Measured normalised cell viability, listed per entry for reference.
system: NCI-H1944; test: normalised cell viability (NPI; 0 = phenylarsine oxide control, 1 = DMSO control) (fraction of DMSO control); higher = more viable cells (less compound toxicity); details: glucocorticoid arm: vehicle; compound 5 µM; 6 days
The full ranking holds about 1,900 compounds; the median of “normalised cell viability (NPI; 0 = phenylarsine oxide control, 1 = DMSO control)” is about 1, and the lowest 2% start at about 0.039. The list comes from a sample in which the lowest values are over-represented; it also holds close analogues and randomly drawn compounds.
Keep the answer to the number alone.

Solved entries:
| COMPOUND | normalised cell viability |
| --- | --- |
| Nc1nc(Cl)nc2c1ncn2[C@@H]1O[C@H](CO)[C@@H](O)[C@H]1O | 0.988 |
| Nc1nc(Cl)nc2c1ncn2[C@@H]1O[C@H](CO)[C@@H](O)[C@@H]1F | 0.0483 |
| Nc1ncn([C@H]2C[C@H](O)[C@@H](CO)O2)c(=O)n1 [5-Aza-2'-deoxycytidine] | 0.296 |

Could you now consider this next compound?
compound Nc1nc(Cl)nc2c1ncn2[C@@H]1O[C@H](COP(=O)(O)OP(=O)(O)OP(=O)(O)O)[C@H](O)C1O (some centres undefined) [2-Chloroadenosine triphosphate tetrasodium] , normalised cell viability observed: 0.981

====

test system: NCI-H1944; experiment: normalised cell viability (NPI; 0 = phenylarsine oxide control, 1 = DMSO control) (fraction of DMSO control); higher = more viable cells (less compound toxicity); conditions: glucocorticoid arm: hydrocortisone 2.75 uM pre-treated 2 days and continued; compound 1 µM; 6 days
Where a name gives a salt, the structure may show the parent alone. The full ranking holds about 1,900 compounds; the median of “normalised cell viability (NPI; 0 = phenylarsine oxide control, 1 = DMSO control)” is about 1, and the lowest 2% start at about 0.039. This is one part of a sample in which the lowest values are shown more often than they occur.
Measured normalised cell viability, listed per entry for reference.

Solved entries:
| COMPOUND | MEASUREMENT KIND | RESULT VALUE |
| --- | --- | --- |
| Nc1cc(C(F)(F)F)c(-c2cc(N3CCOCC3)nc(N3CCOCC3)n2)cn1 | normalised cell viability | 0.713 |
| CCC1=C[C@@H]2CN(C1)Cc1c([nH]c3ccccc13)[C@@](C(=O)OC)(c1cc3c(cc1OC)N(C)[C@H]1[C@@](O)(C(=O)OC)[C@H](OC(C)=O)[C@]4(CC)C=CCN5CC[C@]31[C@@H]54)C2 [Vinorelbine tartrate] | normalised cell viability | 0.629 |
| Cc1ncc(-c2ccnc(Nc3ccc(S(C)(=O)=O)cc3)n2)n1C(C)C | normalised cell viability | 0.705 |
| O=C(c1ccc(Cl)cc1)N1CCN(c2ccc([N+](=O)[O-])c3ncccc23)CC1 | normalised cell viability | 0.992 |
| C[C@H](Cc1ccc(O)c(O)c1)[C@@H](C)Cc1ccc(O)c(O)c1 | normalised cell viability | 0.998 |

compound CC[C@]1(O)C[C@@H]2CN(CCc3c([nH]c4ccccc34)[C@@](C(=O)OC)(c3cc4c(cc3OC)N(C)[C@H]3[C@@](O)(C(=O)OC)[C@H](OC(C)=O)[C@]5(CC)C=CCN6CC[C@]43[C@@H]65)C2)C1 [Vinblastine sulfate salt; Vinblastine sulfate] , normalised cell viability observed: 0.621

====

test system: NCI-H1944; assay: normalised cell viability (NPI; 0 = phenylarsine oxide control, 1 = DMSO control) (fraction of DMSO control); higher = more viable cells (less compound toxicity); conditions: glucocorticoid arm: hydrocortisone 2.75 uM co-treatment; compound 5 µM; 6 days
Counter-ions that a name gives are not always drawn. Whole data set: some 1,900 compounds, median “normalised cell viability (NPI; 0 = phenylarsine oxide control, 1 = DMSO control)” near 1, cut for the lowest 2% near 0.039. The sample holds the lowest values, similar compounds and a random draw of the others, so the mix is not that of the screen.
Measured normalised cell viability, listed per entry for reference.
Keep the answer to the number alone.

| COMPOUND | normalised cell viability |
| --- | --- |
| O=C(/C=C/c1cccc(S(=O)(=O)Nc2ccccc2)c1)NO [Belinostat (PXD101)] | 0.0174 |
| CCOC(=O)C1=CN(Cc2ccccc2)C=C(C(=O)OCC)C1c1ccccc1 | 1.01 |
| CCc1ccc(/C=C2/SC(=S)NC2=O)cc1 | 1.06 |
| O=S(=O)(NCCNCC=Cc1ccc(Br)cc1)c1cccc2cnccc12 | 0.985 |
| C[C@@H]1C(=O)O[C@H]2C[C@@]34[C@H]5C[C@@H](C(C)(C)C)[C@]36[C@@H](OC(=O)[C@@H]6O)O[C@@]4(C(=O)O5)[C@]21O [Ginkgolide A] | 0.986 |
| NC1(C(=O)O)CCCCC1 [1-Amino-1-cyclohexanecarboxylic acid hydrochloride] | 0.991 |
| CC(C)(C)c1ccc(S(=O)(=O)/C=C/C#N)cc1 | 0.41 |
| Cc1ccc(S(=O)(=O)C=CC#N)cc1 | 0.976 |

Could you now consider this next compound?
compound OC[C@H]1O[C@@H](n2cnc3c(N[C@H]4CCC[C@@H]4O)ncnc32)[C@H](O)[C@@H]1O , normalised cell viability observed: 1.01

====

test system: NCI-H1944; experiment: normalised cell viability (NPI; 0 = phenylarsine oxide control, 1 = DMSO control) (fraction of DMSO control); higher = more viable cells (less compound toxicity); details: glucocorticoid arm: vehicle; compound 1 µM; 6 days
Counter-ions that a name gives are not always drawn. In all, about 1,900 compounds were measured (“normalised cell viability (NPI; 0 = phenylarsine oxide control, 1 = DMSO control)”: median about 1, lowest 2% from about 0.039 on). Shown is part of a subset that was picked to be rich in the lowest values.
Measured normalised cell viability, listed per entry for reference.

| MOLECULE | MEASUREMENT TARGET | normalised cell viability |
| --- | --- | --- |
| CC1=C(C(=O)OC2CCCCC2)C(c2ccc([N+](=O)[O-])cc2)C2=C(CC(C)(C)CC2=O)N1 (centres undefined) | NCI-H1944 | 1.02 |
| CC1(C2CCCC2)Cc2cc(OCC(=O)O)c(Cl)c(Cl)c2C1=O (centres undefined) | NCI-H1944 | 0.998 |
| COC(=O)Nc1ccc(-c2nc(N3CCOCC3)c3cnn(C4CCN(C(=O)OC)CC4)c3n2)cc1 | NCI-H1944 | 0.476 |
| O=C(NCc1cccc(O)c1)Nc1nc(-c2ccncc2)cs1 | NCI-H1944 | 0.984 |

molecule S=C(S)OC1CC2CC1C1CCCC21 (centres undefined) , normalised cell viability observed: 1.03

molecule COc1cc2nccc(Oc3ccc(NC(=O)Nc4ccc(F)cc4F)c(F)c3)c2cc1OC , normalised cell viability observed: 1

molecule CCCNC[C@H](O)COc1ccccc1C(=O)CCc1ccccc1 [(S)-(-)-propafenone hydrochloride] , normalised cell viability observed: 0.997

molecule CN(C)C1CCN(C(=O)c2ccc(NC(=O)Nc3ccc(-c4nc(N5CCOCC5)nc(N5CCOCC5)n4)cc3)cc2)CC1 , normalised cell viability observed: 0.0929

====

system: NCI-H1944; assay: normalised cell viability (NPI; 0 = phenylarsine oxide control, 1 = DMSO control) (fraction of DMSO control); NCI-H1944 is a non-small cell lung cancer line; higher = more viable cells (less compound toxicity); settings: glucocorticoid arm: hydrocortisone 2.75 uM co-treatment; compound 5 µM; 6 days;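 further: CTB read-out in 384-well plates, triplicate wells, NPI normalised per plate against 1 µM phenylarsine oxide (0) and 0.1% DMSO (1) controls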
Structures can show the parent of a compound that is named as a salt. In all, about 1,900 compounds were measured (“normalised cell viability (NPI; 0 = phenylarsine oxide control, 1 = DMSO control)”: median about 1, lowest 2% from about 0.039 on). What follows is part of a selection rich in the lowest values, with near analogues and random picks from the rest.
MEASUREMENT KIND: normalised cell viability
Keep the answer to the number alone.

| MOLECULE | normalised cell viability |
| --- | --- |
| CC#CCOC(=O)c1c(C)nc2sc3c(c2c1N)CCC(O)C3 (stereo not given) | 1 |

molecule O=C1NCCc2[nH]c(-c3ccncc3)cc21 , normalised cell viability observed: 0.0894

molecule Nc1ncn([C@@H]2O[C@H](CO)[C@@H](O)[C@H]2O)c(=O)n1 [Azacitidine; 5-azacytidine] , normalised cell viability observed: 1.11

molecule Nc1ccn([C@@H]2O[C@H](CO)[C@@H](O)[C@@H]2O)c(=O)n1 , normalised cell viability observed: 0.115

molecule Cc1[nH]c(=O)c(C#N)cc1-c1ccncc1 [Milrinone] , normalised cell viability observed: 1

molecule CN(C)CCC(c1ccc(Cl)cc1)c1ccccn1 (racemic) [(±)-Chlorpheniramine maleate] , normalised cell viability observed: 0.985

molecule C=CC(=O)Nc1ccc2ncnc(Nc3ccc(OCc4cccc(F)c4)c(Cl)c3)c2c1 , normalised cell viability observed: 0.854
